Target: OTABA
Assay: Fluorescent titration of dye binding to OTABA
Conditions: apparent, dye binding to OTABA
Protocol: Dye interaction with OTABA and subsequent displacement by OTA was initially investigated using fluorescence spectroscopy (FIG. 17) in the previously optimized OTA binding buffer. (Fadock et al., 2017) Additions of OTABA (up to 1.5 equiv.) to the dye (6 μM) caused dose-dependent increases in ligand emission at 488 nm for ThT (240-fold increase at 1.5 equiv. OTABA, FIG. 17a), 605 nm for the 4QI (42-fold, FIG. 17b) and 640 nm for BtC (8-fold, FIG. 17c).
REPORTED_PROPERTY: Kd (µM)
Kindly answer with a numeric value in µM, unit omitted.

Which Kd is reported for this compound? Cc1ccc2c(c1)sc(-c1ccc(N(C)C)cc1)[n+]2C [ThT, Thioflavin T]
10.9

Which Kd is reported for this compound? CCN(CC)c1ccc2cc(/C=C/c3sc4ccccc4[n+]3C)c(=O)oc2c1 [BtC]
3.2

Which Kd is reported for this compound? C[n+]1ccc(/C=C/c2cn(CCCO)c3ccccc23)c2ccccc21.[I-] [4QI]
2.5
